The measurements presented in this section are drawn from paper PMC8882908.

- System: N-methyl-D-aspartate receptors (NMDARs)
- study conditions: read-out: IC50 of the inhibition of NMDAR currents; Vm = −30 mV, [Ca2+] = 0
assay metric: pIC50
Please report pIC50 as the negative decimal logarithm of the molar concentration, giving only the number.

Param request: pIC50 | system N-methyl-D-aspartate receptors (NMDARs) | item `CNCCCN1c2ccccc2CCc2ccccc21`
4.57

###

- target entity: N-methyl-D-aspartate receptors (NMDARs)
- study conditions: read-out: model-predicted IC50; [Ca2+] = 2.5 mM, Vm = −70 mV
IC50 overview
Give your result in nM as a bare value.

- CN(C)CCC=C1c2ccccc2CCc2ccccc21: 1600

Here's the next entry for you.
Output measured IC50 for this item: `CNCCCN1c2ccccc2CCc2ccccc21`
130

###

- Test system: N-methyl-D-aspartate receptors (NMDARs)
- study conditions: read-out: IC50 of the inhibition of NMDAR currents; Vm = −70 mV, [Ca2+] = 1 mM
assay metric: IC50 (µM)
Give your result in µM as a bare value.

Output measured IC50 for this item: `CNCCCN1c2ccccc2CCc2ccccc21`
1.75

###

- Test system: N-methyl-D-aspartate receptors (NMDARs)
- study conditions: read-out: IC50(0 mV); value of IC50 at Vm = 0 mV from fit with Eq. 6 (Woodhull)
assay metric: pIC50
Please report pIC50 as the negative decimal logarithm of the molar concentration, giving only the number.

Output measured pIC50 for this item: `CNCCCN1c2ccccc2CCc2ccccc21`
4.22
